Here, each record is paired with measured log10(IC50) data.
Molecular target: Lysosomal acid glucosylceramidase (Homo sapiens, UniProt P04062)
Sequence (P04062 whole entry): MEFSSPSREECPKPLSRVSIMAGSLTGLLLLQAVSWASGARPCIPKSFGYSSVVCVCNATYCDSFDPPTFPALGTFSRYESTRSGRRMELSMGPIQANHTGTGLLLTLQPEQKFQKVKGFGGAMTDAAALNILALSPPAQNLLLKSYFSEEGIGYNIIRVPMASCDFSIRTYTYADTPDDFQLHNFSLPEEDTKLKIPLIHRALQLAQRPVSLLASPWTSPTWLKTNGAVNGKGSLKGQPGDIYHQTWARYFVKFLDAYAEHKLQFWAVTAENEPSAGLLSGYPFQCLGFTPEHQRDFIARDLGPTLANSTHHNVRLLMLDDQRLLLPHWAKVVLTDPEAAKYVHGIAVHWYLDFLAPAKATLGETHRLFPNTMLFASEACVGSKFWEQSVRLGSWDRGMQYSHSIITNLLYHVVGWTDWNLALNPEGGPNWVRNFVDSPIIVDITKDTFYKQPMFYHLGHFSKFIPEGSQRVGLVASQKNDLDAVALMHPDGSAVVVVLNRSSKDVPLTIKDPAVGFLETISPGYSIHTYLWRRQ
Assay: GCase IC50 Assay
Settings: pH 5.2
observable: log10(IC50) (log10 of the value in nM)

compound: O=C(CCCc1cn2c(n1)C(O)C(O)C(O)C2CO)Nc1ccccc1 (stereo unspecified)
study.system: Lysosomal acid glucosylceramidase (Homo sapiens, UniProt P04062)
value.measured: 0.84
//
compound: OCC1C(O)C(O)C(O)c2nccn21 (stereo unspecified)
study.system: Lysosomal acid glucosylceramidase (Homo sapiens, UniProt P04062)
value.measured: 1.96
//
compound: COc1ccc(CCCc2cn3c(n2)C(O)C(O)C(O)C3CO)cc1 (stereo unspecified)
study.system: Lysosomal acid glucosylceramidase (Homo sapiens, UniProt P04062)
value.measured: 0.47
//
compound: CCCCCCCCc1cn2c(n1)C(O)C(O)C(O)C2CO (stereo unspecified)
study.system: Lysosomal acid glucosylceramidase (Homo sapiens, UniProt P04062)
value.measured: 0.92
//
compound: OCC1C(O)C(O)C(O)c2nc(CCc3ccccc3)cn21 (stereo unspecified)
study.system: Lysosomal acid glucosylceramidase (Homo sapiens, UniProt P04062)
value.measured: 0.57
//
compound: CC(C)(C)CCc1cn2c(n1)C(O)C(O)C(O)C2CO (stereo unspecified)
study.system: Lysosomal acid glucosylceramidase (Homo sapiens, UniProt P04062)
value.measured: 0.73

====

Target: Beta-galactosidase (Bos taurus, UniProt Q58D55)
Sequence (Q58D55 whole entry): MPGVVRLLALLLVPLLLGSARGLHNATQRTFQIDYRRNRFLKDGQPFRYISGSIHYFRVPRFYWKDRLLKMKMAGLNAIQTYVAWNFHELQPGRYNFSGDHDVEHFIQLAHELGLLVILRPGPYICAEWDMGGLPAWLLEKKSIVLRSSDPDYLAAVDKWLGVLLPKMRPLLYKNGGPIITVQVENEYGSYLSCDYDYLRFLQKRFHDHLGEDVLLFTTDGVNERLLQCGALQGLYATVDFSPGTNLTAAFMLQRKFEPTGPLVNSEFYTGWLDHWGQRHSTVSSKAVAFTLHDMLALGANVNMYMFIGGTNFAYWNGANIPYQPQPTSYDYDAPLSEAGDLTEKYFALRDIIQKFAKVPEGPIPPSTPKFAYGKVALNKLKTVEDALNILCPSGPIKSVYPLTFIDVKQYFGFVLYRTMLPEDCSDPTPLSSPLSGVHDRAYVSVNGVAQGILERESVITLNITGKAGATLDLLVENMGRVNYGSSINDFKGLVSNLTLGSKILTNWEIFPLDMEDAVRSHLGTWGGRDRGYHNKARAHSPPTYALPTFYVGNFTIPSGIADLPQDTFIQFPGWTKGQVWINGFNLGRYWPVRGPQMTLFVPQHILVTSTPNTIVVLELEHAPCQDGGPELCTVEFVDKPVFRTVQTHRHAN
observable: log10 of IC50 (log10 of the value in nM)

molecule: CC(C)(CCCc1cn2c(n1)C(O)C(O)C(O)C2CO)C(=O)Nc1ccccc1 (stereo unspecified)
study.system: Beta-galactosidase (Bos taurus, UniProt Q58D55)
log10 of IC50: 3.89
//
molecule: OCC1C(O)C(O)C(O)c2nccn21 (stereo unspecified)
study.system: Beta-galactosidase (Bos taurus, UniProt Q58D55)
log10 of IC50: 2.36
//
molecule: CC(C)(C)CCc1cn2c(n1)C(O)C(O)C(O)C2CO (stereo unspecified)
study.system: Beta-galactosidase (Bos taurus, UniProt Q58D55)
log10 of IC50: 2.54
//
molecule: COc1ccc(CCCc2cn3c(n2)C(O)C(O)C(O)C3CO)cc1 (stereo unspecified)
study.system: Beta-galactosidase (Bos taurus, UniProt Q58D55)
log10 of IC50: 1.96
//
molecule: OCC1C(O)C(O)C(O)c2nc(CCCc3ccc(F)cc3)cn21 (stereo unspecified)
study.system: Beta-galactosidase (Bos taurus, UniProt Q58D55)
log10 of IC50: 2.36
//
molecule: OCC1C(O)C(O)C(O)c2nc(CCCc3ccc(C4CCCCC4)cc3)cn21 (stereo unspecified)
study.system: Beta-galactosidase (Bos taurus, UniProt Q58D55)
log10 of IC50: 0.00

====

Biological target: Lysosomal acid glucosylceramidase (Homo sapiens, UniProt P04062)
pKi: −log10 of the molar value.

compound: COc1ccc(CCCc2cn3c(n2)C(O)C(O)C(O)C3CO)cc1 (stereo not given)
pKi: 8.93
//
compound: O=C(CCCc1cn2c(n1)C(O)C(O)C(O)C2CO)Nc1ccccc1 (stereo not given)
pKi: 8.38
//
compound: OCC1C(O)C(O)C(O)c2nccn21 (stereo not given)
pKi: 7.48
//
compound: CC(C)(CCCc1cn2c(n1)C(O)C(O)C(O)C2CO)C(=O)Nc1ccccc1 (stereo not given)
pKi: 7.72
//
compound: OCC1C(O)C(O)C(O)c2nc(CCCc3ccc(-c4ccccc4)cc3)cn21 (stereo not given)
pKi: 8.44

====

Target: Lysosomal acid glucosylceramidase (Homo sapiens)
Experiment: GCase IC50 Assay
Settings: pH 5.2
pIC50: −log10 of the molar value.
Here, each record is paired with measured pIC50 data.
observable: pIC50

compound: CC(C)(CCCc1cn2c(n1)C(O)C(O)C(O)C2CO)C(=O)Nc1ccccc1 (stereo not given)
study.system: Lysosomal acid glucosylceramidase (Homo sapiens)
observable: pIC50
value.measured: 7.92

compound: Cc1ccc(CCCc2cn3c(n2)C(O)C(O)C(O)C3CO)cc1 (stereo not given)
study.system: Lysosomal acid glucosylceramidase (Homo sapiens)
observable: pIC50
value.measured: 8.26

compound: OCC1C(O)C(O)C(O)c2nc(CCCc3ccc(C4CCCCC4)cc3)cn21 (stereo not given)
study.system: Lysosomal acid glucosylceramidase (Homo sapiens)
observable: pIC50
value.measured: 8.07

compound: OCC1C(O)C(O)C(O)c2nc(CCCc3ccc(-c4ccccc4)cc3)cn21 (stereo not given)
study.system: Lysosomal acid glucosylceramidase (Homo sapiens)
observable: pIC50
value.measured: 8.28

compound: OCC1C(O)C(O)C(O)c2nc(CCCc3ccc(F)cc3)cn21 (stereo not given)
study.system: Lysosomal acid glucosylceramidase (Homo sapiens)
observable: pIC50
value.measured: 8.21

====

Target: Prunasin hydrolase (Prunus dulcis, UniProt H9ZGE1)
Sequence (H9ZGE1 whole entry): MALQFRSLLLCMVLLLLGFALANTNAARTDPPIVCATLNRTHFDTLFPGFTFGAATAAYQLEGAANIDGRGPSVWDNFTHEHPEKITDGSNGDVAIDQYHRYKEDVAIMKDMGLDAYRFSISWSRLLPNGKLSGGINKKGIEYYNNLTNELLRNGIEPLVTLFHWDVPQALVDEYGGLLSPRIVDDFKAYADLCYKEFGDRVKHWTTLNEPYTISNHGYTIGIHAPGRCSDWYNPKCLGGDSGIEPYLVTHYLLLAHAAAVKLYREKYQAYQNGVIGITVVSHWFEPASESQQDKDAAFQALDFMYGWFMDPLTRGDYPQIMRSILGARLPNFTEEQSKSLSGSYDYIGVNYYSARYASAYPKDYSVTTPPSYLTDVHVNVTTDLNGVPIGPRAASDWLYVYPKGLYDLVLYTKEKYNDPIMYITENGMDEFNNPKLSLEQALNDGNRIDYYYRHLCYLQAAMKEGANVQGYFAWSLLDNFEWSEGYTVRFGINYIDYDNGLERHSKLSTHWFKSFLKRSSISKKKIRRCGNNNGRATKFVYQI
pIC50: −log10 of the molar value.
Assign y whenever pIC50 does not fall below 7; assign n whenever it does.

compound: OCC1C(O)C(O)C(O)c2nccn21 (stereo not given)
category: n
--
compound: OCC1C(O)C(O)C(O)c2nc(CCc3ccccc3)cn21 (stereo not given)
category: y
--
compound: OCC1C(O)C(O)C(O)c2nc(CCCc3ccc(-c4ccccc4)cc3)cn21 (stereo not given)
category: y
--
compound: CCCCCCCCCN1C[C@H](O)[C@@H](O)[C@H](O)[C@H]1CO
category: n

====

Here, each record is paired with measured pIC50 data.
Target: Alpha-glucosidase MAL12 (Saccharomyces cerevisiae (strain ATCC 204508 / S288c))
Sequence (P53341 whole entry): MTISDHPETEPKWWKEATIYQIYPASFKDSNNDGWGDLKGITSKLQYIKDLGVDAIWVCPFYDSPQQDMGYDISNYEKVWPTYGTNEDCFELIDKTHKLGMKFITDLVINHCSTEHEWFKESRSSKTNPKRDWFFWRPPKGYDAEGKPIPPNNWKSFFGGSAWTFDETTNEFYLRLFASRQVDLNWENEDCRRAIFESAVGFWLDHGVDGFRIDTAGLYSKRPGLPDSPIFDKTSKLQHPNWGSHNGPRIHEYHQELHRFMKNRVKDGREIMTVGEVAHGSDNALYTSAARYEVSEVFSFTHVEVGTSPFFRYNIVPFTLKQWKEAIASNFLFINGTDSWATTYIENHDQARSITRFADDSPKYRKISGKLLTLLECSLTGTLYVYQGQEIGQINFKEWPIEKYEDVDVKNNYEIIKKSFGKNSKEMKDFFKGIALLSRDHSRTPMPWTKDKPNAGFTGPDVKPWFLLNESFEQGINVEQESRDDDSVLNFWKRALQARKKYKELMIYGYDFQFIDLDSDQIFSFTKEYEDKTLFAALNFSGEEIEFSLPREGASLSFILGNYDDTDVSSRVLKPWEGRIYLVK
Assay: Inhibition Assay Against Commercial Glycosidases
Settings: 37 °C
pIC50: −log10 of the molar value.

compound: OCC1C(O)C(O)C(O)c2nc(CCCc3ccc(-c4ccccc4)cc3)cn21 (configuration not stated)
study.system: Alpha-glucosidase MAL12 (Saccharomyces cerevisiae (strain ATCC 204508 / S288c))
censoring.operator: =
pIC50: 8.22
//
compound: CC(C)(CCCc1cn2c(n1)C(O)C(O)C(O)C2CO)C(=O)Nc1ccccc1 (configuration not stated)
study.system: Alpha-glucosidase MAL12 (Saccharomyces cerevisiae (strain ATCC 204508 / S288c))
censoring.operator: =
pIC50: 4.89
//
compound: O=C(CCCc1cn2c(n1)C(O)C(O)C(O)C2CO)Nc1ccccc1 (configuration not stated)
study.system: Alpha-glucosidase MAL12 (Saccharomyces cerevisiae (strain ATCC 204508 / S288c))
censoring.operator: =
pIC50: 5.98
//
compound: OCC1C(O)C(O)C(O)c2nc(CCCc3ccc(C4CCCCC4)cc3)cn21 (configuration not stated)
study.system: Alpha-glucosidase MAL12 (Saccharomyces cerevisiae (strain ATCC 204508 / S288c))
censoring.operator: =
pIC50: 7.28
//
compound: CCCCCCCCc1cn2c(n1)C(O)C(O)C(O)C2CO (configuration not stated)
study.system: Alpha-glucosidase MAL12 (Saccharomyces cerevisiae (strain ATCC 204508 / S288c))
censoring.operator: =
pIC50: 6.01
//
compound: OCC1C(O)C(O)C(O)c2nccn21 (configuration not stated)
study.system: Alpha-glucosidase MAL12 (Saccharomyces cerevisiae (strain ATCC 204508 / S288c))
censoring.operator: =
pIC50: 4.01
//
compound: CCCCCCCCCN1C[C@H](O)[C@@H](O)[C@H](O)[C@H]1CO
study.system: Alpha-glucosidase MAL12 (Saccharomyces cerevisiae (strain ATCC 204508 / S288c))
censoring.operator: <
pIC50: 4.00
//
compound: CC(C)(C)CCc1cn2c(n1)C(O)C(O)C(O)C2CO (configuration not stated)
study.system: Alpha-glucosidase MAL12 (Saccharomyces cerevisiae (strain ATCC 204508 / S288c))
censoring.operator: =
pIC50: 5.47
//
compound: COc1ccc(CCCc2cn3c(n2)C(O)C(O)C(O)C3CO)cc1 (configuration not stated)
study.system: Alpha-glucosidase MAL12 (Saccharomyces cerevisiae (strain ATCC 204508 / S288c))
censoring.operator: =
pIC50: 6.52
//
compound: OCC1C(O)C(O)C(O)c2nc(CCCc3ccc(F)cc3)cn21 (configuration not stated)
study.system: Alpha-glucosidase MAL12 (Saccharomyces cerevisiae (strain ATCC 204508 / S288c))
censoring.operator: =
pIC50: 6.14
//
compound: OCC1C(O)C(O)C(O)c2nc(CCc3ccccc3)cn21 (configuration not stated)
study.system: Alpha-glucosidase MAL12 (Saccharomyces cerevisiae (strain ATCC 204508 / S288c))
censoring.operator: =
pIC50: 6.24
//
compound: Cc1ccc(CCCc2cn3c(n2)C(O)C(O)C(O)C3CO)cc1 (configuration not stated)
study.system: Alpha-glucosidase MAL12 (Saccharomyces cerevisiae (strain ATCC 204508 / S288c))
censoring.operator: =
pIC50: 6.55
